Source: paper PMC10397247

# experimental-target: T1, 4H4001-bN
# T1 chain: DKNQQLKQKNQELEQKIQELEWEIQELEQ
# assay-protocol: two-hybrid library CCNG1;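 also: natural log of median RNA to DNA barcode read ratio; higher means stronger binding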
// bucketize interaction score: b0 = under -1, b1 = from -1 up to -0.7, b2 = -0.7 and over

> print(dat)
                                     binder  class
1  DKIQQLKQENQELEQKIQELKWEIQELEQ [4H2729-bN]     b0
2  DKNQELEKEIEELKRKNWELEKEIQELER [4H3185-bH]     b2
3  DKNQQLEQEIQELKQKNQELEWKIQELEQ [4H3189-bN]     b0

Exercise: Any idea which band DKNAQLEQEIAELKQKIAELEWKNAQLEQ [4H3175-bA] is in?
Solution: b1

Exercise: Which category does the recorded interaction score put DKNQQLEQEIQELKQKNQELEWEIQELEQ [4H3185-bN] in?
Solution: b0

Exercise: Quick check: band for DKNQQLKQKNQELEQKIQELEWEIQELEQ [4H4001-bN]
Solution: b1

Exercise: Hi, small favor: classify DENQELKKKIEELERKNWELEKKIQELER [4H1845-bH] by its interaction score when you get a moment.
Solution: b1

Exercise: Determine which band this binder sits in: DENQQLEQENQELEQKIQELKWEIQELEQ [4H1193-bN]
Solution: b2

Exercise: // bin(item) where item = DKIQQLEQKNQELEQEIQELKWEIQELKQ [4H2442-bN]
Solution: b2

Exercise: Quick check: band for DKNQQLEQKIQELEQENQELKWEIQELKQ [4H3354-bN]
Solution: b2
